Field: TRAIL fold change cf wt. Provide a value for each of the binders that follow.
# tested.on: T1, TRAIL (human, UniProt P50591 114-281)
# T1 construct: also called TNF-related apoptosis inducing ligand; recombinant human TRAIL (R&D Systems)
# test.protocol: ELISA on coated TRAIL, Fc-linked dimers; EC50 ratio to OPG(22-194).Fc wt; reduction in binding (higher EC50)

For OVP I115M, R122N (Fc fusion, Tested as C-terminal Fc-linked dimer with FLAG tag, from HEK 293 EBNA cells; signal peptide 1-21 processed; also called I115M plus: R122N; not shown: human Fc domain of vector pAPEX-3.Fc; C-terminal FLAG tag) ETFPPKYLHYDEETSHQLLCDKCPPGTYLKQHCTAKWKTVCAPCPDHYYTDSWHTSDECLYCSPVCKELQYVKQECNRTHNRVCECKEGRYLEMEFCLKHNSCPPGFGVVQAGTPERNTVCKRCPDGFFSNETSSKAPCRKHTNCSVFGLLLTQKGNATHDNICSGNSESTQK , what is its reported TRAIL fold change cf wt? > 250 fold

For OVP I115D (Fc fusion, Tested as C-terminal Fc-linked dimer with FLAG tag, from HEK 293 EBNA cells; signal peptide 1-21 processed; not shown: human Fc domain of vector pAPEX-3.Fc; C-terminal FLAG tag) ETFPPKYLHYDEETSHQLLCDKCPPGTYLKQHCTAKWKTVCAPCPDHYYTDSWHTSDECLYCSPVCKELQYVKQECNRTHNRVCECKEGRYLEDEFCLKHRSCPPGFGVVQAGTPERNTVCKRCPDGFFSNETSSKAPCRKHTNCSVFGLLLTQKGNATHDNICSGNSESTQK , what is its reported TRAIL fold change cf wt? > 125 fold

For OVP I115M, R122E (Fc fusion, Tested as C-terminal Fc-linked dimer with FLAG tag, from HEK 293 EBNA cells; signal peptide 1-21 processed; also called I115M plus: R122E; not shown: human Fc domain of vector pAPEX-3.Fc; C-terminal FLAG tag) ETFPPKYLHYDEETSHQLLCDKCPPGTYLKQHCTAKWKTVCAPCPDHYYTDSWHTSDECLYCSPVCKELQYVKQECNRTHNRVCECKEGRYLEMEFCLKHESCPPGFGVVQAGTPERNTVCKRCPDGFFSNETSSKAPCRKHTNCSVFGLLLTQKGNATHDNICSGNSESTQK , what is its reported TRAIL fold change cf wt? > 250 fold
